# target: BTK (Homo sapiens, UniProt Q06187)
# Sequence (Q06187 402-655 limits assumed): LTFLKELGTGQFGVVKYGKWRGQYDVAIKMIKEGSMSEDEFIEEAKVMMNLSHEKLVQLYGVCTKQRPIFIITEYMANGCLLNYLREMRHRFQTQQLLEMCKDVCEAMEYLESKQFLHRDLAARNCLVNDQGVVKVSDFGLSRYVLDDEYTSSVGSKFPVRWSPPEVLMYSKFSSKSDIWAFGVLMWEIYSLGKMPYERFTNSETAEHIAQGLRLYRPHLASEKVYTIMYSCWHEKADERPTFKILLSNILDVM
# protocol.notes: biochemical
# condition.parameters: read-out: BTK inhibition (%), 0.75 uM BTK, […] probe 3l, 15 min preincubation
assay.endpoint: inhibition at 10 µM (%)
// units = %; emit number, no label

C=C(CCC=C(C)C)[C@H]1CC[C@]2(C)[C@@H]1[C@H](O)C[C@@H]1[C@@]3(C)CC[C@H](O[C@@H]4O[C@H](CO)[C@@H](O)[C@H](O)[C@H]4O[C@@H]4O[C@H](CO)[C@@H](O)[C@H](O)[C@H]4O)C(C)(C)[C@@H]3CC[C@]12C [PCM-0216466] :: 6.2
CCCCCCCCCCCCCCCC(=O)OC[C@H](O)[C@H]1OC(=O)C(O)=C1O [PCM-0095304] :: -34.2
O=C(NCc1ccncc1)C12CC3CC(C1)CC(c1ccc(Cl)cc1)(C3)C2 [PCM-0215553] :: -6.9
O=c1c(O)c(-c2ccc(O)cc2)oc2cc(O)cc(O)c12 [PCM-0087037] :: 67.7
CC(=O)Nc1ccc(OC(=O)c2ccccc2OC(C)=O)cc1 [PCM-0216013] :: 2.1
CCOC(=O)/C=C/c1ccc(O)c(O)c1 [PCM-0216571] :: 17.8

Item: C=CCc1ccc(O)c(-c2cc(CC=C)ccc2O)c1 [PCM-0094865] | inhibition at 10 µM: 16.3

Looking up CN1C(=O)[C@@H](NC(=O)c2n[nH]c(Cc3ccccc3)n2)COc2ccccc21 [PCM-0215843] , I found its inhibition at 10 µM recorded as 6.2

Reported inhibition at 10 µM ( NC(=O)N1c2ccccc2CC(=O)c2ccccc21 [PCM-0086055] ) = -10.1
